Entries and their measured inhibition follow.
tested target: Glucose transporter (Leishmania mexicana)
test name: ST_JUDE_LEISH: Cytotoxicity at 2uM final concentration against transgenic Leishmania Mexicana promastigotes LmGT2 that are glucose transport deficient and complemented with the L. Mexicana glucose transporter 2. Activity is measured by DNA content using SYBR green in vitro
Format: functional
State just the number; it will be interpreted in %.

>>> observed_measurement("O=C1COc2ccccc2N1CCN1CCC(NCc2ccc(-c3cccs3)cc2)CC1")
3.03
>>> observed_measurement("CC(=O)Nc1ccc(CN2CCC(N(C)c3ccc(NC(=O)c4cccc(C)c4)cc3)CC2)cc1")
9.57
>>> observed_measurement("O=C(/C=C/c1ccc(Cl)c(Cl)c1)NCCC1CCC(N2CCC(c3c[nH]c4ccc(O)cc34)CC2)CC1 (stereo not given)")
1.36

Task item: Look up and report measured inhibition for this entry: COC(=O)c1ccc(CC(C)NCC(O)c2ccccc2Cl)cc1 (stereo not given)
Reply: 1.21

Task item: Look up and report measured inhibition for this entry: CNCCCCCCOc1ccc(CC(C)NCC(O)c2cccc(C(F)(F)F)c2)cc1 (stereo not given)
Reply: 1.22

Task item: Look up and report measured inhibition for this entry: Cc1[nH]c2ccc(NS(C)(=O)=O)cc2c1C1CCN(CC2CCN(C(=O)/C=C/c3ccc(Cl)c(Cl)c3)CC2)CC1
Reply: -0.21

Task item: Look up and report measured inhibition for this entry: COc1c(F)cc(CC(C)NCC(O)c2cccc(Cl)c2)cc1F (stereo not given)
Reply: -3.56

Task item: Look up and report measured inhibition for this entry: CC(C)c1ccc(C=CC(=O)NC2CCC(CN3CCC(c4c[nH]c5ccccc45)CC3)CC2)cc1 (stereo not given)
Reply: 2.47

Task item: Look up and report measured inhibition for this entry: CC[C@H]1CN2CCc3cc(OC)c(OC)cc3[C@@H]2C[C@@H]1C[C@H]1NCCc2cc(OC)c(OC)cc21
Reply: 90.3

Task item: Look up and report measured inhibition for this entry: CC[C@H]1CN2CC[C@@H]1C[C@H]2[C@H](O)c1cc(N2CCCC(C)(C)C2)nc2ccc(OC)cc12
Reply: 0.37

---

Entries and their measured inhibition follow.
tested target: Solute carrier family 2, facilitated glucose transporter member 1 (Homo sapiens) (UniProt P11166)
Sequence (P11166 whole entry): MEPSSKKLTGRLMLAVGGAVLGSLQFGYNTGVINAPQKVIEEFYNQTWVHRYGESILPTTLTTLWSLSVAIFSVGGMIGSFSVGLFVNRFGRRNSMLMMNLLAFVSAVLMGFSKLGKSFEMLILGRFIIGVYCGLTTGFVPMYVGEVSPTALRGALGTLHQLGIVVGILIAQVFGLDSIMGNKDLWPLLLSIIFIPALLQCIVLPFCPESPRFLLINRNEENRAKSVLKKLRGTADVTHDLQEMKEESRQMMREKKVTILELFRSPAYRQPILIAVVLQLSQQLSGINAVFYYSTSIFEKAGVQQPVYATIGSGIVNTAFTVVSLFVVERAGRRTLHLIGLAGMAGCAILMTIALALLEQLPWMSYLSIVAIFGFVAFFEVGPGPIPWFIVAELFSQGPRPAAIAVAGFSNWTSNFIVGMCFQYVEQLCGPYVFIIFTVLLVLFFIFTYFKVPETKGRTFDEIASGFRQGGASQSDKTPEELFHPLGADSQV
test name: ST_JUDE_LEISH: Cytotoxicity at 2uM final concentration against transgenic Leishmania Mexicana promastigotes LmGLUT1 that are glucose transport deficient and complemented with the human glucose transporter GLUT1. Activity is measured by DNA content using SYBR green in vitro
Assay type: functional
State just the number; it will be interpreted in %.

These solved cases illustrate the format of a correct answer.
>>> observed_measurement("CC(=O)Nc1ccc(CN2CCC(N(C)c3ccc(NC(=O)c4cccc(C)c4)cc3)CC2)cc1")
8.7
>>> observed_measurement("CCC1CN2CCc3cc(OC)c(OC)cc3C2CC1CC1NCCc2cc(OC)c(OC)cc21 (stereo not drawn)")
96.6
>>> observed_measurement("O=C(c1cccs1)N(Cc1cccc(-c2ccc(CNC3CCCC3)cc2)c1)C1CCN(Cc2ccccc2)CC1")
10.1
>>> observed_measurement("CCCc1c(C(=O)NC2CCC(CN3CCC(c4c[nH]c5ccccc45)CC3)CC2)cnn1-c1ccccc1 (stereo not drawn)")
3.14
>>> observed_measurement("CN(C)CCc1c[nH]c2ccc(C(=O)Nc3ccc(-c4ccncc4)cc3)cc12")
0.58
>>> observed_measurement("COc1cccc(C=CC(=O)NC2CCC(CN3CCC(c4c[nH]c5ccccc45)CC3)CC2)c1OC (stereo not drawn)")
1.83

Task item: Look up and report measured inhibition for this entry: O=C(NC1CCC(CN2CCC(c3c[nH]c4ccccc34)CC2)CC1)NC12CC3CC(CC(C3)C1)C2 (stereo not drawn)
Reply: 3.42

Task item: Look up and report measured inhibition for this entry: OC(CNC1CCCCCC1)c1ccc(Cl)c(Cl)c1 (stereo not drawn)
Reply: -0.7

Task item: Look up and report measured inhibition for this entry: CCOC(C(=O)OCC1CCCN1C(C)C)(c1ccccc1)c1ccccc1 (stereo not drawn)
Reply: 3.57

---

tested target: Solute carrier family 2, facilitated glucose transporter member 1 (Homo sapiens)
test name: ST_JUDE_LEISH: Cytotoxicity at 2uM final concentration against transgenic Leishmania Mexicana promastigotes LmGLUT1 that are glucose transport deficient and complemented with the human glucose transporter GLUT1. Activity is measured by DNA content using SYBR green in vitro
Type: functional
quantity: inhibition (%)
State just the number; it will be interpreted in %.

These solved cases illustrate the format of a correct answer.
>>> observed_measurement("O=C(COc1ccc(Cl)cc1)N1CCC(CN2CCC(c3c[nH]c4ccccc34)CC2)CC1")
-2.1
>>> observed_measurement("O=C(c1cc(C(=O)NCc2ccc(Cl)cc2)c(=O)n(Cc2ccc(Cl)cc2)c1)c1cc(F)ccc1O")
2.53

// moving on: another record for inhibition
Task item: Look up and report measured inhibition for this entry: CC[C@H]1CN2CC[C@H]1C[C@@H]2[C@@H](OC(=O)c1ccc(Cl)cc1)c1ccnc2ccc(OC)cc12
Reply: 1.77

---

tested target: Glucose transporter (Leishmania mexicana) (UniProt O61059)
test name: ST_JUDE_LEISH: Cytotoxicity at 2uM final concentration against transgenic Leishmania Mexicana promastigotes LmGT2 that are glucose transport deficient and complemented with the L. Mexicana glucose transporter 2. Activity is measured by DNA content using SYBR green in vitro
Type: functional
quantity: inhibition (%)
State just the number; it will be interpreted in %.

>>> observed_measurement("CN(c1cc(NC(=O)c2ccc(F)cc2)ccn1)C1CCN(Cc2ccc(C#N)cc2)CC1")
4.46
>>> observed_measurement("CNCCCN(C)C(=O)Oc1c(Br)c(C)nc(C)c1-c1ccc(Oc2ccc(OC(F)(F)F)cc2)cc1")
-1.27

Task item: Look up and report measured inhibition for this entry: FC(F)(F)c1ccc(NC(=S)N2CCC(CN3CCC(c4c[nH]c5ccccc45)CC3)CC2)cc1
Reply: 2.98

Task item: Look up and report measured inhibition for this entry: COC(=O)CN(C(=O)/C=C/c1ccc(Cl)c(Cl)c1)C1CCC(CN2CCC(c3c[nH]c4ccccc34)CC2)CC1 (centres undefined)
Reply: 2.24

Task item: Look up and report measured inhibition for this entry: O=C(/C=C/c1cc([N+](=O)[O-])ccc1Cl)NC1CCC(CN2CCC(c3c[nH]c4ccccc34)CC2)CC1 (centres undefined)
Reply: 2.13

---

tested target: Glucose transporter (Leishmania mexicana) (UniProt O61059)
test name: ST_JUDE_LEISH: Cytotoxicity at 2uM final concentration against transgenic Leishmania Mexicana promastigotes LmGT2 that are glucose transport deficient and complemented with the L. Mexicana glucose transporter 2. Activity is measured by DNA content using SYBR green in vitro
Assay type: functional
quantity: inhibition
Could you kindly put the unit after your number?

>>> observed_measurement("Oc1ccc(Cl)cc1CN1CCC(CCOC(c2ccccc2)c2ccc(Cl)cc2)CC1 (stereo not drawn)")
"5.18%"
>>> observed_measurement("CC[C@H]1CN2CC[C@H]1C[C@H]2[C@H](OC(=O)c1ccccc1)c1cc(C#N)nc2ccc(OC)cc12")
"0.6%"

Task item: Look up and report measured inhibition for this entry: CN(c1cc(NC(=O)c2cccs2)ccn1)C1CCN(Cc2cccc(F)c2)CC1
Reply: 5.71%

---

tested target: Glucose transporter (Leishmania mexicana)
test name: ST_JUDE_LEISH: Cytotoxicity at 2uM final concentration against transgenic Leishmania Mexicana promastigotes LmGT2 that are glucose transport deficient and complemented with the L. Mexicana glucose transporter 2. Activity is measured by DNA content using SYBR green in vitro
Assay type: functional
Entries and their measured inhibition follow.
State just the number; it will be interpreted in %.

>>> observed_measurement("OC(CNC12CC3CC(CC(C3)C1)C2)c1cccc(C(F)(F)F)c1 (configuration not stated)")
-0.45
>>> observed_measurement("CC[C@H]1CN2CC[C@@H]1C[C@H]2[C@H](O)c1cc(N2CCC(C(N)=O)CC2)nc2ccc(OC)cc12")
8.43
>>> observed_measurement("CCCN(CCC)CCOC(=O)C(OCC)(c1ccccc1)c1ccccc1")
-0.33
>>> observed_measurement("CC[C@H]1CN2CC[C@H]1C[C@H]2[C@H](O)c1cc(-c2ccc(F)cc2C)nc2ccc(OC)cc12")
2.55
>>> observed_measurement("CC(C)/C(=C(/F)CN1C(=O)C(NC(=O)c2cc3ccccc3[nH]2)C(=O)N(c2ccccc2)c2ccccc21)c1ccccc1 (configuration not stated)")
-1.01
>>> observed_measurement("COc1cccc(CC(C)NCC(O)c2cccc(Cl)c2)c1 (configuration not stated)")
1.92

Task item: Look up and report measured inhibition for this entry: CC[C@H]1CN2CC[C@H]1C[C@H]2[C@H](O)c1cc(-c2cccc(F)c2)nc2ccc(OC)cc12
Reply: 5.44

---

tested target: Solute carrier family 2, facilitated glucose transporter member 1 (Homo sapiens)
test name: ST_JUDE_LEISH: Cytotoxicity at 2uM final concentration against transgenic Leishmania Mexicana promastigotes LmGLUT1 that are glucose transport deficient and complemented with the human glucose transporter GLUT1. Activity is measured by DNA content using SYBR green in vitro
Format: functional
Entries and their measured inhibition follow.

These solved cases illustrate the format of a correct answer.
>>> observed_measurement("CC(=O)N(Cc1ccccc1-c1cccc(CNCCc2ccccc2)c1)C1CCN(Cc2ccccc2)CC1")
"8.96%"
>>> observed_measurement("N[C@@H](CCN1CCC(c2cccc(O)c2)CC1)Cc1ccc(F)c(F)c1")
"3.74%"
>>> observed_measurement("CC[C@H]1CN2CC[C@H]1C[C@H]2[C@H](O)c1cc(-c2ccc(F)cc2C)nc2ccc(OC)cc12")
"4.97%"
>>> observed_measurement("O=C(/C=C/c1ccc(Cl)c(Cl)c1)NC1CCC(CN2CCC(c3c[nH]c4ccccc34)CC2)CC1 (stereo unspecified)")
"2.35%"

Task item: Look up and report measured inhibition for this entry: CS(=O)(=O)Nc1ccc2[nH]cc(C3CC4CCC(C3)N4CC3CCC(NC(=O)/C=C/c4ccc(Cl)c(Cl)c4)CC3)c2c1 (stereo unspecified)
Reply: 5.91%

Task item: Look up and report measured inhibition for this entry: CCCCCC(C)C(C)c1cc(O)c2c(c1)OC1(C(C)C)CC(O)C(C)C2C1 (stereo unspecified)
Reply: 5.93%

Task item: Look up and report measured inhibition for this entry: O=C(NC1CCC(CN2CCC(c3c[nH]c4ccccc34)CC2)CC1)c1csc(-c2cccc(Cl)c2Cl)n1 (stereo unspecified)
Reply: 5.32%

Task item: Look up and report measured inhibition for this entry: COC(=O)CN(C(=O)/C=C/c1ccc(Cl)c(Cl)c1)C1CCC(CN2CCC(c3c[nH]c4ccccc34)CC2)CC1 (stereo unspecified)
Reply: 1.07%

Task item: Look up and report measured inhibition for this entry: COC(=O)c1ccc(CC(C)NCC(O)c2ccc3ccc4ccccc4c3c2)cc1 (stereo unspecified)
Reply: 3.1%

Task item: Look up and report measured inhibition for this entry: COc1ccc(C(=O)C2CC2CN2CC=C(c3c[nH]c4cccc(Br)c34)CC2)cc1 (stereo unspecified)
Reply: 4.26%

Task item: Look up and report measured inhibition for this entry: COCCNCc1ccc(-c2cccc(CN(C(=O)CCC3CCCC3)C3CCN(Cc4ccccc4)CC3)c2)cc1
Reply: -4.16%

Task item: Look up and report measured inhibition for this entry: COC(=O)c1ccc(CC(C)NCC(O)c2cccc(C(F)(F)F)c2)c(Cl)c1 (stereo unspecified)
Reply: 2.55%

Task item: Look up and report measured inhibition for this entry: CC[C@H]1CN2CC[C@H]1C[C@H]2[C@H](O)c1cc(N2CCCC(CO)C2)nc2ccc(OC)cc12 (stereo partly specified)
Reply: 2.62%

Recorded values, source ChEMBL document CHEMBL3433997.
